- Test system: MDA-MB-435
- assay.explanation: NCI tumour cell line growth inhibition, 48 h
Active and inactive are the calls of the source. Cut-off read from the data, not from the text of the source: active = GI50 up to about 1.1 µM and inactive = higher.
quantity.name: GI50

# compound, test.target, value.measured
data = [
    ("CC(C)(C)OC(=O)N1CC(O)O[C@H](c2ccccc2)[C@@H]1c1ccccc1 (some centres undefined)", "MDA-MB-435", "17.3 µM (inactive)"),
    ("CSCCC(NC(=O)OC(C)(C)C)C(=O)NCCNc1ccc(NCCNC(=O)C(CCSC)NC(=O)OC(C)(C)C)c2c1C(=O)c1ccccc1C2=O (centres undefined)", "MDA-MB-435", "2.63 µM (inactive)"),
    ("O=[N+]([O-])c1cc(-c2nnc(C34CC5CC(CC(C5)C3)C4)o2)cc([N+](=O)[O-])c1", "MDA-MB-435", "19.1 µM (inactive)"),
    ("C/C=C(/COC(C)=O)C(=O)OC1C=C(C=O)C(C)(C)C=C1C (centres undefined)", "MDA-MB-435", "> 100 µM (inactive)"),
    ("C=C(C)CNCC(=C)C.Oc1c(Cl)c(Cl)c(Cl)c(Cl)c1Cl", "MDA-MB-435", "23.7 µM (inactive)"),
    ("COc1cccc(N2C(=O)CSC2c2cccc(Oc3ccccc3)c2)c1 (centres undefined)", "MDA-MB-435", "2.81 µM (inactive)"),
    ("COc1ccc(-n2cnc3c(NCC(=O)O)ncnc32)cc1", "MDA-MB-435", "> 100 µM (inactive)"),
    ("Cc1ccnc2nc(N)ccc12", "MDA-MB-435", "> 100 µM (inactive)"),
    ("Cc1ccc(N(C)S(=O)(=O)c2ccc([N+](=O)[O-])cc2)cc1", "MDA-MB-435", "81.8 µM (inactive)"),
    ("CC(=O)Oc1cccc2c1C(=O)C(Br)(Br)CCC2", "MDA-MB-435", "3.56 µM (inactive)"),
    ("NC(=O)c1nnn(-c2ccccc2)c1O", "MDA-MB-435", "> 100 µM (inactive)"),
    ("CCn1c(=N)sc2nc3ccccc3n2c1=O", "MDA-MB-435", "> 100 µM (inactive)"),
    ("COc1ccc2c(c1)/C(=C\\c1c(C)nc3n1CCS3)C(=O)N2", "MDA-MB-435", "3.12 µM (inactive)"),
    ("COC(=O)NC(Nc1ccc(C)cc1)(C(F)(F)F)C(F)(F)F", "MDA-MB-435", "> 100 µM (inactive)"),
]

----------
GI50 listing for selected compounds.
- System: SW-620
- assay.explanation: NCI tumour cell line growth inhibition, 48 h
Active and inactive are the calls of the source. Rule as the data show it: active = GI50 up to about 1.1 µM and inactive = higher.

# compound, test.target, GI50
records = [
    ("COc1ccc2nc3ccc(OC)cc3c(SCCO)c2c1", "SW-620", "28.4 µM (inactive)"),
    ("Cc1ccc(C(=O)Cc2nc3c([nH]c2=O)c(C)nn3-c2ccccc2)c(C)c1", "SW-620", "6.59 µM (inactive)"),
    ("c1ccc2nc3c(nc2c1)sc1ccccc13", "SW-620", "56 µM (inactive)"),
    ("N=C(N)c1ccc(/N=N\\c2c(O)ccc3c2[nH]c2ccccc23)cc1", "SW-620", "2.32 µM (inactive)"),
    ("Cc1cc(NC(=O)C2C3C=CC(O3)C2C(=O)O)no1 (stereo not drawn)", "SW-620", "1.5 µM (inactive)"),
    ("O=C(O)c1cc(/C=C/c2ccc(O)c(O)c2)ccc1O", "SW-620", "> 10 µM (inactive)"),
    ("O=C1COC(c2ccccc2O)=NN1CCCN1CCCC1", "SW-620", "> 100 µM (inactive)"),
    ("C=C1C2CCC3(CCC4C5(C)CCCC4(C=[N+](CCO)C5)C3C2)C1O (stereo not drawn)", "SW-620", "> 100 µM (inactive)"),
    ("CC(C)(C)OC(=O)NC1CC=CCC1NC(=O)OC(C)(C)C (stereo not drawn)", "SW-620", "> 100 µM (inactive)"),
    ("N=C(N)NC1C(O)C(O)C(O)C(NC(=N)N)C1O (stereo not drawn)", "SW-620", "> 100 µM (inactive)"),
    ("CCC(C)C1=C(OC(C)=O)[N+]2([O-])Oc3ccc(-c4c(OC(C)=O)c(OC(C)=O)c(-c5ccc(OC(C)=O)cc5)c(OC(C)=O)c4OC(C)=O)cc3OC2(C(C)CC)C(=O)N1OC(C)=O (stereo not drawn)", "SW-620", "20.5 µM (inactive)"),
    ("CC(C)=CC(=O)C1c2cccc(O)c2C(=O)c2c(O)cc(C)cc21 (stereo not drawn)", "SW-620", "3.33 µM (inactive)"),
    ("CC1(C)SC2C(NC(=O)C(C(=O)O)c3ccccc3)C(=O)N2C1C(=O)O (stereo not drawn)", "SW-620", "> 100 µM (inactive)"),
    ("CN(CC(=O)O)c1ncc2c(n1)C=CCC2", "SW-620", "> 100 µM (inactive)"),
    ("COc1ccc(C)c2c1N[C@](C)([C@]1(C)Nc3c(OC)ccc(C)c3C1=O)C2=O", "SW-620", "> 100 µM (inactive)"),
    ("FC(F)(F)C1(C(F)(F)F)O[Si]2(OC(C(F)(F)F)(C(F)(F)F)c3ccccc32)c2ccccc21", "SW-620", "17.1 µM (inactive)"),
    ("CC(C)(C)OC(=O)N1N=CCC1c1ccccc1 (stereo not drawn)", "SW-620", "> 100 µM (inactive)"),
    ("Cc1cc(C(=C2C=CC(=N)C=C2)c2ccc(N)cc2)ccc1N", "SW-620", "3.67 µM (inactive)"),
    ("COC(=O)c1ccccc1NC(=O)/C(=N\\NC(C)(C)C)C(C#N)c1nc(-c2ccc([N+](=O)[O-])cc2)cs1 (stereo not drawn)", "SW-620", "> 100 µM (inactive)"),
    ("NCCCCC(=O)c1cccnc1", "SW-620", "> 100 µM (inactive)"),
    ("O=C(c1ccc2ccccc2c1)N(Cc1cccnc1)C(=S)N(Cc1cccnc1)C(=O)c1ccc2ccccc2c1", "SW-620", "49.5 µM (inactive)"),
    ("OCCCOC(c1ccccc1)(c1ccccc1)c1ccccc1", "SW-620", "> 100 µM (inactive)"),
    ("CC(=O)NC1=C(C)C(=O)c2c(nc3n2CCC3OC(=O)c2ccccc2)C1=N (stereo not drawn)", "SW-620", "1.63 µM (inactive)"),
    ("O=C(OCC1OC(n2nc(Cn3nnc(-c4cccnc4)n3)n(-c3cccc4ccccc34)c2=S)C(OC(=O)c2ccccc2)C1OC(=O)c1ccccc1)c1ccccc1 (stereo not drawn)", "SW-620", "> 100 µM (inactive)"),
    ("CC(=O)OCC(=O)O[C@@H]1[C@H]2[C@@H](OC(=O)c3ccccc3)[C@@H](C)C[C@]2(O)[C@H](OC(C)=O)[C@@]2(C)C[C@]1(OC(C)=O)C[C@H]1C(=O)C(C)(C)[C@@H](OC(C)=O)[C@@H]12", "SW-620", "21.2 µM (inactive)"),
    ("COc1ccc(C2(CC(C)C)CCNC2)cc1OC (stereo not drawn)", "SW-620", "> 100 µM (inactive)"),
    ("Cc1ccc(O)c(C2=NNC(c3cccc(Br)c3)C2)c1 (stereo not drawn)", "SW-620", "67.1 µM (inactive)"),
    ("O=C1Nc2ccccc2/C1=C1/Nc2ccccc2/C1=N/OCCO", "SW-620", "14 µM (inactive)"),
    ("CCOc1ccc(/N=N/c2ccc3cc(/C(C)=N/NC(=O)/C(C#N)=C\\c4ccc(N(CCC#N)CCC#N)cc4)c(=O)oc3c2)cc1", "SW-620", "> 10 µM (inactive)"),
    ("O=C(CNc1ccc2c(=S)c3ccccc3[nH]c2c1)Nc1ccccc1-c1ccccc1NC(=O)CNc1ccc2c(=S)c3ccccc3[nH]c2c1", "SW-620", "18.4 µM (inactive)"),
    ("CC(=O)C1=C(C)N2C(=NC3=C(CCc4ccccc43)C2c2cccc(Br)c2)S1 (stereo not drawn)", "SW-620", "> 100 µM (inactive)"),
    ("C=C1CCCCCCCCC/C=C/1SCCCSC", "SW-620", "> 100 µM (inactive)"),
    ("O=C(O)c1cccc(/[As]=[As]\\c2cccc(C(=O)O)c2)c1 (stereo not drawn)", "SW-620", "32.7 µM (inactive)"),
]

----------
- System: SN12C
- assay.explanation: NCI tumour cell line growth inhibition, 48 h
Calls of active or inactive are those of the source. Rule as the data show it: active = GI50 up to about 1.1 µM and inactive = higher.
quantity.name: GI50

# molecule, test.target, value.measured
data = [
    ("O=C(/C=C/c1ccc(O)cc1)NCCc1ccc(O)cc1", "SN12C", "5 µM (inactive)"),
    ("O=C(CNc1ccc2c(=S)c3ccccc3[nH]c2c1)Nc1ccccc1-c1ccccc1NC(=O)CNc1ccc2c(=S)c3ccccc3[nH]c2c1", "SN12C", "22.2 µM (inactive)"),
    ("COc1ccc2nc3ccc(OC)cc3c(SCCO)c2c1", "SN12C", "26.4 µM (inactive)"),
    ("O=c1c(Cl)c(Cl)cnn1CCc1ccncc1", "SN12C", "18 µM (inactive)"),
    ("COc1ccccc1/C=C1\\N=C(C)OC1=O", "SN12C", "> 100 µM (inactive)"),
    ("COc1ccc(-n2cnc3c(NCC(=O)O)ncnc32)cc1", "SN12C", "> 100 µM (inactive)"),
    ("CCOc1ncnc2ccc(Cl)c(I)c12", "SN12C", "67.5 µM (inactive)"),
    ("C=CCc1cccc2cc(C(=O)Nc3ccc(C)cc3)c(=N)oc12", "SN12C", "> 100 µM (inactive)"),
]

Each recorded value in this set is attributed to ChEMBL document CHEMBL1201862.
